Assignment: determine reported inhibition for the given compounds.
Target: P2X purinoceptor 7 (Homo sapiens)
Test: Antagonist activity at human P2X7 receptor expressed in HEK293 cells assessed as inhibition of BzATP-induced EtBr uptake at 1 uM after 2 hrs by fluorescence assay relative to control
Format: cell-based
Numbers only, in %.

Query: # inhibition lookup, item COC(=O)c1cc2c(NC(=O)C34CC5CC(CC(C5)C3)C4)cccc2n(Cc2cccc(OC)c2)c1=O
Response: 35

For each of the compounds below, note its inhibition.
1. COC(=O)c1cc2c(NC(=O)C34CC5CC(CC(C5)C3)C4)cccc2n(Cc2ccc(F)cc2)c1=O
2. Nc1ccc(-c2ccc3c(NC(=O)CC45CC6CC(CC(C6)C4)C5)cccc3n2)cc1
3. O=C(CC12CC3CC(CC(C3)C1)C2)Nc1cccc2nc(-c3ccccc3O)ccc12
4. COc1ccc(Cn2c(=O)c(C(=O)O)cc3c(NC(=O)C45CC6CC(CC(C6)C4)C5)cccc32)cc1
5. COC(=O)c1cc2c(NC(=O)C34CC5CC(CC(C5)C3)C4)cccc2n(Cc2ccc(OC)cc2)c1=O
6. CCOC(=O)c1cc2c(NC(=O)C34CC5CC(CC(C5)C3)C4)cccc2n(Cc2ccc(OC)cc2)c1=O
7. COC(=O)c1cc2c(NC(=O)CC3CCCCC3)cccc2n(Cc2ccc(OC)cc2)c1=O

Response:
1: 66; 2: 85; 3: 41; 4: 2; 5: 76; 6: 86; 7: 63

Query: # inhibition lookup, item COC(=O)c1cc2c(NC(=O)CCC3CCCC3)cccc2n(Cc2ccc(OC)cc2)c1=O
Response: 15
